measuredTarget: Cholecystokinin receptor type A (Homo sapiens, UniProt P32238)
Sequence (P32238 whole entry): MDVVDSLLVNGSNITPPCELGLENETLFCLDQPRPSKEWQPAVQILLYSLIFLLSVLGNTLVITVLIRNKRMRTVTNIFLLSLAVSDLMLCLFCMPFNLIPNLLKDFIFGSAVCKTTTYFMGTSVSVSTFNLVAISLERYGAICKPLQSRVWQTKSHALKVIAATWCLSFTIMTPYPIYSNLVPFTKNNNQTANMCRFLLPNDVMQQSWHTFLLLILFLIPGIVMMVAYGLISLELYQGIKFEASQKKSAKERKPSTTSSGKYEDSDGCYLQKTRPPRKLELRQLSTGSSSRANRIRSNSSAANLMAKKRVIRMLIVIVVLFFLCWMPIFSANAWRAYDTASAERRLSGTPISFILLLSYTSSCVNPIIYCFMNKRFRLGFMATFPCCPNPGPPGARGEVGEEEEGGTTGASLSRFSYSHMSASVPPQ
protocolDescription: Displacement of [125I]-CCK-8 from human CCK1R expressed in human 1321N1 cell membranes after 2 hrs by SPA assay
Numbered stars: 1 amine (or outer) side, 2 acyl side, 3 side chain; on linkers, the order of the positions; unused ones are H or OH. Square brackets hold non-standard residues; d marks the D form. Peptide text beside a SMILES is read from it. * marks the point of attachment. Phenylacetyl(4-OSO3H) = O=C(Cc1ccc(OS(=O)(=O)O)cc1)*; sY = N[C@@H](Cc1ccc(OS(=O)(=O)O)cc1)C(=O)O; C18 diacid = O=C(O)CCCCCCCCCCCCCCCCC(=O)*; γGlu = O=C(O)[C@H](CCC(=O)[*:2])N[*:1]; Hyp = O=C(O)[C@@H]1C[C@@H](O)CN1; dNMeD = CN[C@H](CC(=O)O)C(=O)O; Nle = CCCC[C@H](N)C(=O)O; AEEA = NCCOCCOCC(=O)O
compounds and their reported IC50

| compound | measuredTarget | IC50, nM |
| --- | --- | --- |
| CCCC[C@H](NC(=O)Cc1ccc(OS(=O)(=O)O)cc1)C(=O)NCC(=O)N[C@@H](Cc1c[nH]c2ccccc12)C(=O)N[C@@H](CCCC)C(=O)N(C)[C@H](CC(=O)O)C(=O)N[C@@H](Cc1ccccc1)C(N)=O ({Phenylacetyl(4-OSO3H)}-[Nle]GW[Nle][dNMeD]F-NH2) | Cholecystokinin receptor type A (Homo sapiens, UniProt P32238) | 0.0447 |
| CCCC[C@H](NC(=O)[C@H](Cc1ccc(OS(=O)(=O)O)cc1)NC(=O)[C@H](CC(=O)O)NC(=O)COCCOCCNC(=O)COCCOCCNC(=O)CC[C@H](NC(=O)CCCCCCCCCCCCCCCCC(=O)O)C(=O)O)C(=O)NCC(=O)N[C@@H](Cc1c[nH]c2ccccc12)C(=O)N[C@@H](CCCC)C(=O)N1C[C@H](O)C[C@H]1C(=O)N[C@@H](Cc1ccccc1)C(N)=O ({C18 diacid-γGlu-AEEA-AEEA}-D[sY][Nle]GW[Nle][Hyp]F-NH2) | Cholecystokinin receptor type A (Homo sapiens, UniProt P32238) | 3.02 |

---

compounds and their reported pIC50
measuredTarget: Gastrin/cholecystokinin type B receptor (Homo sapiens, UniProt P32239)
Sequence (P32239 whole entry): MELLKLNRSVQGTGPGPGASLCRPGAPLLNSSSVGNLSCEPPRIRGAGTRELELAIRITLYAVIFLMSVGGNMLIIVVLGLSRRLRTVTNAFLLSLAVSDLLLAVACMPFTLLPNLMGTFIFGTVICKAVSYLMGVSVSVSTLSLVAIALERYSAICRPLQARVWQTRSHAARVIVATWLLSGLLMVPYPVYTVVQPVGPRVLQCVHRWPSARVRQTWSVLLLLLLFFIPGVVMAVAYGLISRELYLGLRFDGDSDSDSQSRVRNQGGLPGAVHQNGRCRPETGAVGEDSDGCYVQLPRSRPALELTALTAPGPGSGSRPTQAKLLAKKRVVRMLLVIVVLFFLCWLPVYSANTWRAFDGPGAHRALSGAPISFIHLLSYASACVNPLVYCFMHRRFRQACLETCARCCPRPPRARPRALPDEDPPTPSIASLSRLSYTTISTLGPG
protocolDescription: Displacement of [125I]-CCK-8 from human CCK2R expressed in human 1321N1 cell membranes after 2 hrs by SPA assay
pIC50: −log10 of the molar value. Numbered stars: 1 amine (or outer) side, 2 acyl side, 3 side chain; on linkers, the order of the positions; unused ones are H or OH. Square brackets hold non-standard residues; d marks the D form. Peptide text beside a SMILES is read from it. * marks the point of attachment. Phenylacetyl(4-OSO3H) = O=C(Cc1ccc(OS(=O)(=O)O)cc1)*; sY = N[C@@H](Cc1ccc(OS(=O)(=O)O)cc1)C(=O)O; C18 diacid = O=C(O)CCCCCCCCCCCCCCCCC(=O)*; γGlu = O=C(O)[C@H](CCC(=O)[*:2])N[*:1]; dNMeD = CN[C@H](CC(=O)O)C(=O)O; Nle = CCCC[C@H](N)C(=O)O; AEEA = NCCOCCOCC(=O)O

| compound | pIC50 |
| --- | --- |
| CCCC[C@H](NC(=O)[C@H](Cc1c[nH]c2ccccc12)NC(=O)CNC(=O)[C@H](CC(C)C)NC(=O)[C@H](Cc1ccc(OS(=O)(=O)O)cc1)NC(=O)[C@H](CC(=O)O)NC(=O)COCCOCCNC(=O)COCCOCCNC(=O)CC[C@H](NC(=O)CCCCCCCCCCCCCCCCC(=O)O)C(=O)O)C(=O)N[C@@H](CC(=O)O)C(=O)N[C@@H](Cc1ccccc1)C(N)=O | 9.78 |
| CCCC[C@H](NC(=O)Cc1ccc(OS(=O)(=O)O)cc1)C(=O)NCC(=O)N[C@@H](Cc1c[nH]c2ccccc12)C(=O)N[C@@H](CCCC)C(=O)N(C)[C@H](CC(=O)O)C(=O)N[C@@H](Cc1ccccc1)C(N)=O ({Phenylacetyl(4-OSO3H)}-[Nle]GW[Nle][dNMeD]F-NH2) | 5.13 |
| CCCC[C@H](NC(=O)[C@H](Cc1c[nH]c2ccccc12)NC(=O)[C@H](CCCCN)NC(=O)[C@H](CCCC)NC(=O)[C@H](Cc1ccc(OS(=O)(=O)O)cc1)NC(=O)[C@H](CC(=O)O)NC(=O)COCCOCCNC(=O)COCCOCCNC(=O)CC[C@H](NC(=O)CCCCCCCCCCCCCCCCC(=O)O)C(=O)O)C(=O)N[C@@H](CC(=O)O)C(=O)N[C@@H](Cc1ccccc1)C(N)=O ({C18 diacid-γGlu-AEEA-AEEA}-D[sY][Nle]KW[Nle]DF-NH2) | 7.87 |
